The measurements presented in this section are drawn from the supplement of paper PMC12855868.

B1: library; numbered along this chain (parent)
chain: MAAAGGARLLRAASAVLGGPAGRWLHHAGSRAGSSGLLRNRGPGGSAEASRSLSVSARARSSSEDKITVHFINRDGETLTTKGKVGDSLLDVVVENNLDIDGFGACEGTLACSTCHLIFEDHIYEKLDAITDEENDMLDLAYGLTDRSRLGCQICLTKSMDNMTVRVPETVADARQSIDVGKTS

Variants of: B1
experiment_summary: scaled log2 fold change in cell abundance, elesclomol vs control (0 = silent mean, 1 = nonsense mean) (scaled log2 ratio); higher = higher viability under elesclomol (loss of FDX1 cuproptosis function);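 further: variant abundance is its share of total variant reads in each endpoint sample, from next-generation sequencing of the integrated ORF PCR-amplified out of genomic DNA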
run_conditions: with HEK293T FDX1 KO; elesclomol 40 nM; glucose 10 mM; 11 days
# cutoff -0.03 applies to scaled log2 fold change; >= gives class 1, < gives class 0

Example entries begin here.
Has S148D a recorded scaled log2 fold change greater than or equal to -0.03? class 1

Identify whether the reported scaled log2 fold change of the following variant is -0.03 or greater: L98S class 0

# check: scaled log2 fold change of G44Q is greater than or equal to -0.03 class 1

Check the entry P20V : does scaled log2 fold change equal or exceed -0.03? class 1

Please tell me: is the variant C152E at or over -0.03 in terms of scaled log2 fold change? class 1

---
I'd appreciate it if you could say whether D121H has scaled log2 fold change at least equal to -0.03. class 0

For this variant, is measured scaled log2 fold change -0.03 or higher? G102R class 0

Could you please find out whether S184K has scaled log2 fold change that meets -0.03 or exceeds it? class 1

Does E133L have a reported scaled log2 fold change of at least -0.03? class 1

Check the entry G76I : does scaled log2 fold change equal or exceed -0.03? class 1

In plain terms: is recorded scaled log2 fold change at least -0.03 for G6R ? class 1
